study system: the molecule itself
test description: cryo-EM structure
Quick reference for stoichiometry N among some proteins
Provide a numeric answer; units are not to be included.

Previously resolved entries follow.
protein: PA0623 tube protein of pyocin R2 (natural protein, Pseudomonas aeruginosa PAO1, UniProt Q9I5S9 1-167, looked up) MIPQTLTNTNLFIDGVSFAGDVPSLTLPKLAVKTEQYRAGGMDAPVSIDMGLEAMEAKFSTNGARREALNFFGLADQSAFNGVFRGSFKGQKGASVPVVATLRGLLKEVDPGDWKAGEKAEFKYAVAVSYYKLEVDGREVYEIDPVNGVRAINGVDQLAGMRNDLGL
stoichiometry N: 6
//
protein: PA0626 ripcord protein of pyocin R2 (natural protein, Pseudomonas aeruginosa PAO1, UniProt G3XD65 1-290, looked up) MAYLEQLQAGLRYLGRAGESGRKSLDKVVAPVNGAISEIRGAAAELENLPGVSPEMAARLQRAMRGIGQAQGKVNRVVSTYDRASRALLGIDERLDALKVQVNSAAQAVGKVAGDISPTLAGVLPSWLLAPSATPPSEAAASLPHLLVLQPLTANAQPFYFNLNTAAFDALQRNSAYNWSGQVRLGRRPALQSVGMGEESILLKGAVFPLRRQVGNQEKVVGLEQLEALRRLAERREPLILSSGYGEVQMGLWCLVRISENQSALLGNGAPRKQTFDLEFKRYGDDLPNR
stoichiometry N: 6
//
protein: PA0618 (Tri1) triplex protein of pyocin R2 (natural protein, Pseudomonas aeruginosa PAO1, UniProt G3XCX5 1-295, looked up) MIIDLSQLPEPEVIENLDFETIYQELLGDFREAMAGEWTAEVESDPVLKLLQLAAYRELLLRARINDAARAVMLAYASGADLDQIGAGFNVQRLLIRPAQPEAVPPVEAQYESDKSLRNRIQLAFEQLSVAGPRNAYIAHALGADGRVADASATSPAPCEVLISVLGVEGNGQAPEAVLQAVRLALNAEDVRPVADRVTVRSAGIVPYQVKAQLYLFPGPEAELIRAAAEASLRDYISAQRRLGRDIRRSALFATLHVEGVQRVELQEPAADVVLDETQAAYCTGYAITLGGVDE
stoichiometry N: 2

Task: Param item = PA0616 central spike protein of pyocin R2 (in the native particle) (natural protein) MSYVSAEHDRMLAAMILPCVVVAVDLAAARVRVRSGDWTSGWLRWHSLAAGKVRHWRAPSIGEQGVLLSPSGGVSMGTFIPGLYGDAGTAPDNSASSETWRFDDGASLSYDWAAHRYRVELPSGTVEVRVGASEVRVSDGAVSLKAPKISLEGPVEIAGTLTVSGDILGGGSIIDTAGNSNHHTH ; retrieve measured stoichiometry N.
Result: 3

Task: Param item = PA0628 hub protein of pyocin R2 (natural protein, Pseudomonas aeruginosa PAO1, UniProt G3XCU8 1-329, looked up) MQPSFRIVADGTDVTQRLNDRLLKLTLLDKPGMESDSLTLRIDDRDGQVALPRRGAVLEVHLGYAGEPLMRMGRFTVDTLQWAGPPDCLTVTAKAGDMRGSGKTIRSGGWEGTTLAQVCRDVGARNGWRVECPLQVAIARVDQVNESDYHFVTRLARQYDCTAKLAEGMLMVLPRQSGQSATGRRIEPLVLGRADVGSFDVTFDDRSLMRTVKTRYQLPGSGEVKSVELKNPKAPATAMGEHVDRHLYTSRGEAEQAAKARLASFSRSSASVRLELPGRGDLFAERSLLLQGFKAGIDGEFLIDSVEHTYSSSGWTTVVQCNGGRGGKG ; retrieve measured stoichiometry N.
Result: 3

Task: Param item = PA0615 collar protein of pyocin R2 (natural protein, Pseudomonas aeruginosa PAO1, UniProt G3XD82 1-171, looked up) MPEQAVTLEALYAAIEQVLRERLPEAQLIGFWPGVPENTPAVSLEIAELLPERDPGTGESALLCRLQARIMVPPGADRQAVSIACGIVRTLREQTWNLSLQPARFVRSAVDGSREELKSLRVWLVEWTQSLRLGDPEWAWEDQPPGSLMLGFDPQTGPGHEPDYFAPEALA ; retrieve measured stoichiometry N.
Result: 6
